Origin of values: ChEMBL document CHEMBL1129358

# Measurement target: Chymotrypsinogen A (Bos taurus)
# Assay protocol: Ratio between k inactivation and KI of alpha-chymotrypsin
Measurement kind: log10(K inact/Ki) (log10 of the value in M⁻¹ s⁻¹)
Record value = log10 of K inact/Ki given in M⁻¹ s⁻¹.

Reference set, count: 5
[[record]]
compound = "CC(C)OC(=O)c1cc2cc(CCl)ccc2oc1=O"
measurement_target = "Chymotrypsinogen A (Bos taurus)"
meas_value = 2.84

[[record]]
compound = "O=C(Nc1ccccc1)c1cc2cc(CCl)ccc2oc1=O"
measurement_target = "Chymotrypsinogen A (Bos taurus)"
meas_value = 1.51

[[record]]
compound = "Cc1ccc(OC(=O)c2cc3cc(CCl)ccc3oc2=O)cc1"
measurement_target = "Chymotrypsinogen A (Bos taurus)"
meas_value = 2.84

[[record]]
compound = "COC(=O)CNC(=O)c1cc2cc(CCl)ccc2oc1=O"
measurement_target = "Chymotrypsinogen A (Bos taurus)"
meas_value = 1.08

[[record]]
compound = "C=CCNC(=O)c1cc2cc(CCl)ccc2oc1=O"
measurement_target = "Chymotrypsinogen A (Bos taurus)"
meas_value = 1.90


Reported log10(K inact/Ki) for "Cc1ccccc1OC(=O)c1cc2cc(CCl)ccc2oc1=O" : what is it?
5.06

Reported log10(K inact/Ki) for "Cc1cc(OC(=O)c2cc3cc(CCl)ccc3oc2=O)ccc1Cl" : what is it?
3.88

Reported log10(K inact/Ki) for "Cc1cccc(OC(=O)c2cc3cc(CCl)ccc3oc2=O)c1" : what is it?
4.86

---

# Measurement target: Chymotrypsinogen A (Bos taurus)
# Assay protocol: Compound was tested for the Inactivation of alpha-chymotrypsin
Measurement kind: K inact (s⁻¹)
Output spec: scalar in s⁻¹, unitless text.

[[record]]
smiles_string = "Cc1ccccc1OC(=O)c1cc2cc(CCl)ccc2oc1=O"
unit_text = "s⁻¹"
meas_value = 0.043


Now for a further compound.
Reported K inact for "C=CCOC(=O)c1cc2cc(CCl)ccc2oc1=O" : what is it?
0.014

---

# Measurement target: Neutrophil elastase (Homo sapiens)
# Sequence (whole entry): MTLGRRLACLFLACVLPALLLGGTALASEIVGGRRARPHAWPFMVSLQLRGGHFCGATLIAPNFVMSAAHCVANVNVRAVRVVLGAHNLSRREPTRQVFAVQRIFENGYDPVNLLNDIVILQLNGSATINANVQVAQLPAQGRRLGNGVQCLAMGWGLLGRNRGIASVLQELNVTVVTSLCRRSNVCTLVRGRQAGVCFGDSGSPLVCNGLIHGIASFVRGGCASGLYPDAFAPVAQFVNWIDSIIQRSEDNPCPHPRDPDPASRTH
# Assay protocol: Ratio between k observed and KI of Human leukocyte elastase (HEL);[…]
Calls of active or inactive are those of the source. No cut-off for these calls is given here.
Measurement kind: K obs / 1

Reference set, count: 5
[[record]]
molecule = "O=C(Oc1ccc(Cl)cc1)c1cc2cc(CCl)ccc2oc1=O"
measurement_kind = "K obs / 1"
meas_value = "inactive"

[[record]]
molecule = "Cc1ccc(OC(=O)c2cc3cc(CCl)ccc3oc2=O)cc1"
measurement_kind = "K obs / 1"
meas_value = "inactive"

[[record]]
molecule = "CNC(=O)c1cc2cc(CCl)ccc2oc1=O"
measurement_kind = "K obs / 1"
meas_value = "inactive"

[[record]]
molecule = "Cc1cccc(OC(=O)c2cc3cc(CCl)ccc3oc2=O)c1"
measurement_kind = "K obs / 1"
meas_value = "inactive"

[[record]]
molecule = "COC(=O)C(Cc1ccccc1)NC(=O)c1cc2cc(CCl)ccc2oc1=O (centres undefined)"
measurement_kind = "K obs / 1"
meas_value = "inactive"


Reported K obs / 1 for "C=CCNC(=O)c1cc2cc(CCl)ccc2oc1=O" : what is it?
inactive

Reported K obs / 1 for "O=C(NCCc1ccccc1)c1cc2cc(CCl)ccc2oc1=O" : what is it?
inactive

Reported K obs / 1 for "CCOC(=O)c1cc2cc(CCl)ccc2oc1=O" : what is it?
inactive

Reported K obs / 1 for "CCCCCNC(=O)c1cc2cc(CCl)ccc2oc1=O" : what is it?
inactive

---

# Measurement target: Neutrophil elastase (Homo sapiens) (UniProt P08246)
# Sequence (whole entry): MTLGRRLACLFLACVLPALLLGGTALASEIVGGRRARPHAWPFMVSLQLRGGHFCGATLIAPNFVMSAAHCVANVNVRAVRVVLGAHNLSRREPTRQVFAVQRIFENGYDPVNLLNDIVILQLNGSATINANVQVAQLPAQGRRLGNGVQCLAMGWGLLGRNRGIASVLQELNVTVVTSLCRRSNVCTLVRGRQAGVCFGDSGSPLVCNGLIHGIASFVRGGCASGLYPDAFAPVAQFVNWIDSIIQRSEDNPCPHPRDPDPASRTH
# Assay protocol: Ratio between k observed and KI of Human leukocyte elastase (HEL)
Measurement kind: log10 K obs / 1 (log10 of the value in M⁻¹ s⁻¹)
Record value = log10 of K obs / 1 given in M⁻¹ s⁻¹.

Reference set, count: 5
[[record]]
smiles_string = "O=C(Oc1ccccc1)c1cc2cc(CCl)ccc2oc1=O"
measurement_target = "Neutrophil elastase (Homo sapiens) (UniProt P08246)"
meas_value = 1.36

[[record]]
smiles_string = "O=C(Oc1cccc(I)c1)c1cc2cc(CCl)ccc2oc1=O"
measurement_target = "Neutrophil elastase (Homo sapiens) (UniProt P08246)"
meas_value = 1.93

[[record]]
smiles_string = "Cc1cc(OC(=O)c2cc3cc(CCl)ccc3oc2=O)ccc1Cl"
measurement_target = "Neutrophil elastase (Homo sapiens) (UniProt P08246)"
meas_value = 1.95

[[record]]
smiles_string = "Cc1ccc2oc(=O)c(C(=O)Oc3ccccc3)cc2c1"
measurement_target = "Neutrophil elastase (Homo sapiens) (UniProt P08246)"
meas_value = 2.52

[[record]]
smiles_string = "O=C(NCc1ccccc1)c1cc2cc(CCl)ccc2oc1=O"
measurement_target = "Neutrophil elastase (Homo sapiens) (UniProt P08246)"
meas_value = 1.76


Now for a further compound.
Identify the measured log10 K obs / 1 of "O=C(Oc1cccc([N+](=O)[O-])c1)c1cc2cc(CCl)ccc2oc1=O" for Neutrophil elastase (Homo sapiens) (UniProt P08246).
2.70

---

# Measurement target: Chymotrypsinogen A (Bos taurus) (UniProt P00766)
# Assay protocol: Ratio between k inactivation and KI of alpha-chymotrypsin
Given measured K inact/Ki, output 1 (yes) if it is greater than or equal to 300 M⁻¹ s⁻¹ and 0 (no) if not.

[[record]]
compound = "CCCCCCCCOC(=O)c1cc2cc(CCl)ccc2oc1=O"
assigned_class = "0 (no)"

[[record]]
compound = "COC(=O)c1cc2cc(CCl)ccc2oc1=O"
assigned_class = "0 (no)"

[[record]]
compound = "O=C(NCc1ccccc1)c1cc2cc(CCl)ccc2oc1=O"
assigned_class = "0 (no)"


Please tell me: is the compound "O=C(Oc1ccc(I)cc1)c1cc2cc(CCl)ccc2oc1=O" at or over 300 M⁻¹ s⁻¹ in terms of K inact/Ki?
1 (yes)

Please tell me: is the compound "O=C(Oc1ccc(Cl)cc1)c1cc2cc(CCl)ccc2oc1=O" at or over 300 M⁻¹ s⁻¹ in terms of K inact/Ki?
1 (yes)

Please tell me: is the compound "CCOC(=O)c1cc2cc(CCl)ccc2oc1=O" at or over 300 M⁻¹ s⁻¹ in terms of K inact/Ki?
0 (no)

Please tell me: is the compound "O=C(Oc1ccccc1I)c1cc2cc(CCl)ccc2oc1=O" at or over 300 M⁻¹ s⁻¹ in terms of K inact/Ki?
1 (yes)

Please tell me: is the compound "O=C(OCc1ccccc1)c1cc2cc(CCl)ccc2oc1=O" at or over 300 M⁻¹ s⁻¹ in terms of K inact/Ki?
0 (no)

Please tell me: is the compound "O=C(Oc1cccc(I)c1)c1cc2cc(CCl)ccc2oc1=O" at or over 300 M⁻¹ s⁻¹ in terms of K inact/Ki?
1 (yes)

Please tell me: is the compound COC(=O)C(Cc1ccccc1)NC(=O)c1cc2cc(CCl)ccc2oc1=O (configuration not stated) at or over 300 M⁻¹ s⁻¹ in terms of K inact/Ki?
0 (no)

Please tell me: is the compound "O=C(Oc1cccc([N+](=O)[O-])c1)c1cc2cc(CCl)ccc2oc1=O" at or over 300 M⁻¹ s⁻¹ in terms of K inact/Ki?
1 (yes)

Please tell me: is the compound "O=C(Oc1ccccc1)c1cc2cc(CCl)ccc2oc1=O" at or over 300 M⁻¹ s⁻¹ in terms of K inact/Ki?
1 (yes)

---

# Measurement target: Chymotrypsinogen A (Bos taurus) (UniProt P00766)
# Assay protocol: Compound was tested for the Inactivation of alpha-chymotrypsin
Lab note - cut at 0.03 s⁻¹ for K inact: 1 if strictly below, 0 if not.

Sample answers from the record:
[[record]]
smiles_string = "O=C(Oc1ccccc1I)c1cc2cc(CCl)ccc2oc1=O"
assigned_class = 1

[[record]]
smiles_string = "CC(C)OC(=O)c1cc2cc(CCl)ccc2oc1=O"
assigned_class = 1


Does "O=C(Oc1ccccc1Cl)c1cc2cc(CCl)ccc2oc1=O" have K inact strictly under 0.03 s⁻¹?
0

Does "O=C(Oc1ccccc1)c1cc2cc(CCl)ccc2oc1=O" have K inact strictly under 0.03 s⁻¹?
0

Does "CCOC(=O)c1cc2cc(CCl)ccc2oc1=O" have K inact strictly under 0.03 s⁻¹?
1
